B1: ZNF263 (parent)
chain: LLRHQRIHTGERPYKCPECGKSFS

Variants of: B1
protocol-text: protein stability index of a GFP-peptide fusion (GPS, HEK-293T) (PSI 1-6); higher = more stable;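 also: lentivirally expressed fusions sorted by FACS into six bins by GFP to DsRed ratio, PSI derived from sequencing read proportions per bin multiplied by bin number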
condition-summary: c terminus: a fixed tail appended
assay-metric: protein stability index
Form: value (number only, do not type unit).

QUERY: Give a short answer stating reported protein stability index for LLRHQRIHTGERPYKFPECGKSFS .
RESULT: 2.48

QUERY: Give a short answer stating reported protein stability index for LLRHQRIHTGERPYQCPECGKSFS .
RESULT: 2.46

QUERY: Give a short answer stating reported protein stability index for LLRHQRIHTGESPYKCPECGKSFS .
RESULT: 2.11

QUERY: Give a short answer stating reported protein stability index for MLRHQRIHTGERPYKCPECGKSFS .
RESULT: 1.65

QUERY: Give a short answer stating reported protein stability index for LLRHQRIHTGERPYECPECGKSFS .
RESULT: 2.66

QUERY: Give a short answer stating reported protein stability index for LLRHQRIHTGEEPYKCPECGKSFS .
RESULT: 2.71

QUERY: Give a short answer stating reported protein stability index for LLRHQRIHTYERPYKCPECGKSFS .
RESULT: 2.17

QUERY: Give a short answer stating reported protein stability index for LLRHQRIHTGERPYKCPEWGKSFS .
RESULT: 1.66

QUERY: Give a short answer stating reported protein stability index for LLRHQRIHTGERPYKCPECGKSIS .
RESULT: 2.51

Source listed as the supplement of paper PMC10567573.
